So I've got a bunch of molecules here, and I need their MIC values.
# Tested on: A. baumannii (ARC3495)

Recorded MIC, per entry:
{"Molecule": "CN1C(=O)CON=C1[C@@H]1c2c(cnn2C)[C@@H]2CN1C(=O)N2OS(=O)(=O)O", "Measured": "> 16 µg/mL"}
{"Molecule": "CN/C(=N\\OC(=O)N(C)C)[C@@H]1c2c(cnn2C)[C@@H]2CN1C(=O)N2OS(=O)(=O)O (racemic)", "Measured": "> 16 µg/mL"}
{"Molecule": "CN/C(=N\\OC(C)=O)[C@@H]1c2c(cnn2C)[C@@H]2CN1C(=O)N2OS(=O)(=O)O", "Measured": "> 16 µg/mL"}
{"Molecule": "CN/C(=N\\O)[C@@H]1c2c(cnn2CCCCN)[C@@H]2CN1C(=O)N2OS(=O)(=O)O", "Measured": "8 to 16 µg/mL"}
{"Molecule": "CN/C(=N\\OCC(=O)O)[C@@H]1c2c(cnn2C)[C@@H]2CN1C(=O)N2OS(=O)(=O)O", "Measured": "> 16 µg/mL"}

State recorded MIC for all listed molecules.
1. CN/C(=N\OCCCCN)[C@@H]1c2c(cnn2C)[C@@H]2CN1C(=O)N2OS(=O)(=O)O (racemic)
2. Cn1ncc2c1[C@@H](C1=NOC(C(=O)O)C1)N1C[C@@H]2N(OS(=O)(=O)O)C1=O (mixture of isomers)
3. Cn1ncc2c1[C@@H](/C(=N/O)C(N)=O)N1C[C@@H]2N(OS(=O)(=O)O)C1=O
4. CN/C(=N\OCC(=O)NCCCCN)[C@@H]1c2c(cnn2C)[C@@H]2CN1C(=O)N2OS(=O)(=O)O (racemic)
5. CN/C(=N\O)[C@@H]1c2c(cnn2CC(N)=O)[C@@H]2CN1C(=O)N2OS(=O)(=O)O
6. CN/C(=N\OCC(=O)NC1CNC1)[C@@H]1c2c(cnn2C)[C@@H]2CN1C(=O)N2OS(=O)(=O)O (racemic)

a:
["> 16 µg/mL", "> 16 µg/mL", "> 16 µg/mL", "8 to 16 µg/mL", "8 to 16 µg/mL", "> 16 µg/mL"]

Provide MIC for all items below, preserving their order.
1. CN/C(=N\OC(=O)NC1CCNCC1)[C@@H]1c2c(cnn2C)[C@@H]2CN1C(=O)N2OS(=O)(=O)O (racemic)
2. C/C(=N\O)[C@@H]1c2c(cnn2C)[C@@H]2CN1C(=O)N2OS(=O)(=O)O
3. CN/C(=N\OCC(=O)NCCN)[C@@H]1c2c(cnn2C)[C@@H]2CN1C(=O)N2OS(=O)(=O)O (racemic)
4. CN/C(=N\OC(=O)NCCCC[C@H](N)C(=O)O)[C@@H]1c2c(cnn2C)[C@@H]2CN1C(=O)N2OS(=O)(=O)O (racemic)

a:
1: 8 to 16 µg/mL; 2: > 16 µg/mL; 3: 8 to 16 µg/mL; 4: > 16 µg/mL
